# experimental_system: human OGA (hOGA) (Homo sapiens, UniProt O60502)
# Construct: made in house
# Sequence (O60502 1-916): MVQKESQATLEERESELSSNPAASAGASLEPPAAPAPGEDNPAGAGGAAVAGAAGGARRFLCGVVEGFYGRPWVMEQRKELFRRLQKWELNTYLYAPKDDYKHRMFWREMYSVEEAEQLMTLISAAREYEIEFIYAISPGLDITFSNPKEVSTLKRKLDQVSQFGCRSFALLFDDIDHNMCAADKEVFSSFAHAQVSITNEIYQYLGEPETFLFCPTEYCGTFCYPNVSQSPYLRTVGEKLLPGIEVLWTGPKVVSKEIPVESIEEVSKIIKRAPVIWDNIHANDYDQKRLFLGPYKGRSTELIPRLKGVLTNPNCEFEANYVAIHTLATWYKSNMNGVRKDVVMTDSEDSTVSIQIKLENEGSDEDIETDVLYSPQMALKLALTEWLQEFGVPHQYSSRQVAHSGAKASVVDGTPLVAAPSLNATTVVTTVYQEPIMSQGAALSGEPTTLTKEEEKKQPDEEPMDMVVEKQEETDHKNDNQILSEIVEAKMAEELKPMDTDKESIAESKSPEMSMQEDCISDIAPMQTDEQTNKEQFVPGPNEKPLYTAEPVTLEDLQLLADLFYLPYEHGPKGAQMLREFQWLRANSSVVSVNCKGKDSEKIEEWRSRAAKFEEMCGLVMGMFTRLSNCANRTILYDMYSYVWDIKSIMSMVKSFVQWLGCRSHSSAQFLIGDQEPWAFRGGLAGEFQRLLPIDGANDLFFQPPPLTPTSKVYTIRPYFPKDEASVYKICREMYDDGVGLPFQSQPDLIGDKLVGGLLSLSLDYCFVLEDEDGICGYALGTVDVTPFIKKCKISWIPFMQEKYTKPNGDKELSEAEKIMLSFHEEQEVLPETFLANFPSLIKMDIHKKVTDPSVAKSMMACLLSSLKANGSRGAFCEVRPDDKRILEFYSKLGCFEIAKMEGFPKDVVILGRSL
# test: Inhibition of hOGA-catalysed 4-MUGlcNAc hydrolysis (Ki determination)
# Format: biochemical
# run_parameters: Michaelis-Menten analysis; hOGA 0.8 nM (Figure S2A); read-out: hOGA Ki
metric_name: Ki (nM)
Just the number in nM, nothing appended.

Ki on human OGA (hOGA) (Homo sapiens, UniProt O60502) for C=CCNC1=N[C@@H]2[C@@H](O)[C@H](O)[C@@H](CO)O[C@@H]2S1 [11b] is 2.3

====

# experimental_system: human hexosaminidase B (hHexB) (Homo sapiens, UniProt P07686)
# Construct: Micheal Tropak, Hospital for Sick Children, Toronto (gift, not a vendor)
# Sequence (P07686 122-556): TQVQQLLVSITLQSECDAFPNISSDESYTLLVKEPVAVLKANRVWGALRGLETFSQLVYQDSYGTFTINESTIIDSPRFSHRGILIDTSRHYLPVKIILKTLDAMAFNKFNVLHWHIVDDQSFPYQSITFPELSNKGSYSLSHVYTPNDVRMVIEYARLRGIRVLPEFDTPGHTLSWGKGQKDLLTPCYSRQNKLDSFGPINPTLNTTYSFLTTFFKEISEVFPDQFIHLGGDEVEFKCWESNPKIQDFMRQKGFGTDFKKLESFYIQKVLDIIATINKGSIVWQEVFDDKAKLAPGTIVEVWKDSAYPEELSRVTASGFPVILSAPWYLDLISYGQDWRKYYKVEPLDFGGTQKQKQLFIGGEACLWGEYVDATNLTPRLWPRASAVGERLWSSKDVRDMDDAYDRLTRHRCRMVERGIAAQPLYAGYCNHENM
# test: Inhibition of human hexosaminidase B (4-MUGlcNAc substrate)
# Format: biochemical
# run_parameters: Ki hHexB / Ki hOGA, favored selectivity for hOGA
metric_name: (hHexB/hOGA) selectivity ratio
// return just the number, without any unit appended

The reported (hHexB/hOGA) selectivity ratio value, human hexosaminidase B (hHexB) (Homo sapiens, UniProt P07686), for OC[C@H]1O[C@@H]2SC(NCC(F)(F)F)=N[C@@H]2[C@@H](O)[C@@H]1O [15h] reads 4200

Record for NC1=N[C@@H]2[C@@H](O)[C@H](O)[C@@H](CO)O[C@@H]2S1 [11a] under target or system human hexosaminidase B (hHexB) (Homo sapiens, UniProt P07686): (hHexB/hOGA) selectivity ratio reported as 1100

(hHexB/hOGA) selectivity ratio on human hexosaminidase B (hHexB) (Homo sapiens, UniProt P07686) for OC[C@H]1O[C@@H]2SC(NCC(F)F)=N[C@@H]2[C@@H](O)[C@@H]1O [15g] is 2500

Hey, just so you know, these numbers are from paper PMC6008586.
